target: human Npt2a (Homo sapiens, UniProt Q06495); assay: Npt2a activity cell based assay, membrane potential dye, CHO T-REx hNpt2a cells; details: doxycycline-induced, depolarization by sodium phosphate influx, average or median values if tested more than once
Sequence (Q06495 whole entry): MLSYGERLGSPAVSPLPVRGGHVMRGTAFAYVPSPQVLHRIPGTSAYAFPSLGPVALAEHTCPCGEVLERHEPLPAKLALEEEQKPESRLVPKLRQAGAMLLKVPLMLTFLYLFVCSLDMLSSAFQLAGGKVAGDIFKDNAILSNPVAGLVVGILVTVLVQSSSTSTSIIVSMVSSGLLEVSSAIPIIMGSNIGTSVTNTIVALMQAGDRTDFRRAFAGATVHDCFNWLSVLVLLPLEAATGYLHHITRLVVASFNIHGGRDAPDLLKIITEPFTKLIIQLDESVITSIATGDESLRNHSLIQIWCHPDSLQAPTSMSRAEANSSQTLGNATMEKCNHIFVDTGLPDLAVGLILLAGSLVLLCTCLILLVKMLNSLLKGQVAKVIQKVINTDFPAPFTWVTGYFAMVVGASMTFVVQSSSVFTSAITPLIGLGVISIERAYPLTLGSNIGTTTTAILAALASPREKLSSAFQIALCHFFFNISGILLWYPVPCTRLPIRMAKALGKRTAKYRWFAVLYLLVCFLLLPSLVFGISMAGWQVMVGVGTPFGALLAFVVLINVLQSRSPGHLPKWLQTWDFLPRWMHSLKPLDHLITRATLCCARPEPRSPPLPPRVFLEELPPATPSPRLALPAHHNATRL
VALUE_KIND: log10 of IC50 (log10 of the value in nM)
Use the decimal logarithm of IC50 (nM).

Take a look at these entries with their results.
Cc1nn(-c2cc(Nc3nn(CCC4CC4)c(-c4ccc(C#N)cc4)c3C)ncn2)c(C)c1Cl :: 1.64
CCc1c(-c2ccc(F)cc2)nn(CC2CC2)c1Nc1cc(-n2nc(C)c3ccncc32)ncn1 :: 1.30
COCCn1nc(-c2ccc(C(F)F)cc2)c(C)c1Nc1cc(-n2nc(C)c(C(=O)N(C)C)c2C)ncn1 :: 1.90
COCCn1nc(-c2ccc(F)cc2)c(C)c1Nc1cc(-n2nc(C)c(Cl)c2C)ncn1 :: 0.48
Cc1nn(-c2cc(Nc3c(Cl)c(-c4ccc(F)cc4)nn3C)ncn2)c(C)c1C(C)(C)O :: 2.18
CCc1c(Nc2cc(-n3nc(C)c4cnccc43)ncn2)nn(C)c1-c1ccc(F)cc1 :: 1.67
COc1c(C)nn(-c2cc(Nc3nn(C)c(-c4ccc(F)cc4)c3OC(F)F)ncn2)c1C :: 0.48
Cc1cc(C(F)F)n(-c2cc(Nc3c(C)c(-c4ccc(C#N)cc4)nn3CC3CC3)ncn2)n1 :: 0.48
Cc1nn(-c2cc(Nc3c(Cl)c(-c4ccc(F)cc4)nn3C)ncn2)c2ccccc12 :: 2.56
Cc1nn(-c2ccc(F)cc2)c(C)c1Nc1cc(-n2nc(C)c3ccccc32)ncn1 :: 0.86

Determine its reported log10 of IC50: "Cc1nn(-c2cc(Nc3c(C)c(-c4ccc(F)cc4)nn3CC3CC3)ncn2)c(C)c1OC(F)F"
1.00

Determine its reported log10 of IC50: "CCc1c(Nc2cc(-n3nc(C)cc3C)ncn2)nn(CC2CC2)c1-c1ccc(F)cc1"
2.62

Determine its reported log10 of IC50: COc1c(-c2ccc(F)cc2)nn(CC2CC2)c1Nc1cc(-n2nc(C)c(C(C)O)c2C)ncn1 (racemic)
3.22

Determine its reported log10 of IC50: "Cc1nn(-c2cc(Nc3nn(C)c(-c4ccc(F)cc4)c3Cl)ncn2)c(C)c1Cl"
0.68

Determine its reported log10 of IC50: COC(C)c1c(C)nn(-c2cc(Nc3c(C)c(-c4ccc(C#N)cc4)nn3C)ncn2)c1C (racemic) [Example 338]
0.85

Determine its reported log10 of IC50: "CCc1c(Nc2cc(-n3nc(C)c(Cl)c3C)ncn2)nn(C)c1-c1ccc(F)cc1"
1.70
